The entries below come with measured protein stability index values attached.
B1: HSP90AB1 (parent)
chain: TLRQKAEADKNDKAVKDLVVLLFE

# Variants of: B1
# Assay Summary: protein stability index of a GFP-peptide fusion (GPS, HEK-293T) (PSI 1-6); higher = more stable;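 also: lentivirally expressed fusions sorted by FACS into six bins by GFP to DsRed ratio, PSI derived from sequencing read proportions per bin multiplied by bin number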
# Experimental Conditions: c terminus: a fixed tail appended
Form field (numeric): enter value without unit.

As a guide, the following entries are already answered.
{"Record Sequence": "TLRQKAEADKNDKAVKDLVVLLWE", "protein stability index": 2.56}
{"Record Sequence": "TLRQKADADKNDKAVKDLVVLLFE", "protein stability index": 2.79}

protein stability index reading for "TLRQKAEADKNDKAVKDLVVWLFE" : 1.73

protein stability index reading for "TLRQTAEADKNDKAVKDLVVLLFE" : 3.15

protein stability index reading for "TLRQKGEADKNDKAVKDLVVLLFE" : 2.72

protein stability index reading for "TLRQQAEADKNDKAVKDLVVLLFE" : 4.01

protein stability index reading for "TLRQKAEADKNDFAVKDLVVLLFE" : 1.93

protein stability index reading for "TLRQKAEADKNDGAVKDLVVLLFE" : 2.77

protein stability index reading for "TLRQKAEADKNDKAVKDLVVGLFE" : 3.63

protein stability index reading for "TLRQKAEAPKNDKAVKDLVVLLFE" : 2.48

protein stability index reading for "TLRQKAEADKNDWAVKDLVVLLFE" : 1.73

protein stability index reading for "TLRQKAEADKNDKAVKDLVVLLFI" : 2.54

protein stability index reading for "TLRQKAEADKNDKAVKDLVVLYFE" : 2.78

protein stability index reading for "TLRQKAEADKNDKAVKDLRVLLFE" : 4.18
